- Test Description: TEAD-YAP interaction inhibition, primary screen, TEAD-YAP interaction inhibitor project, luminescence, HEK-TIYL cells (AID 1259422);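 further: 0% = median of test compound wells and 100% = reference inhibitor wells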
- Condition Set: TEAD-Gal4/YAP UAS-luciferase luminescence, at 9.12 µM, active compounds read high
Hit rate of the full screen: of about 640,000 compounds, about 9,300 (1.5%) were called active. The list comes from a sample in which actives are over-represented; it also holds close analogues and randomly drawn compounds.
Below, each entry is listed with its recorded inhibition.
Reported Endpoint: inhibition (%)

1. Cc1cc(C)n(CCc2nc(-c3ccc(Cl)cc3)cs2)n1; -9.3
2. COc1cc(OC)c(-n2c(C)cc(/C=C3/C(=N)N4C=CSC4=NC3=O)c2C)cc1Cl; -0.88
3. CC1=CN2C(=N)/C(=C/c3cc(C)n(-c4ccc(F)cc4)c3C)C(=O)N=C2S1; -6.11
4. Cc1cc(/C=C2/C(=N)N3C=CSC3=NC2=O)c(C)n1-c1ccc(F)cc1; 41.3
5. Oc1ccc(/C=N/Nc2ccccc2Cl)c(O)c1O; -1.62

* * *

// inhibition lookup, one value per entry
- Test Description: TEAD-YAP interaction inhibition, primary screen, TEAD-YAP interaction inhibitor project, luminescence, HEK-TIYL cells (AID 1259422);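 further: 0% = median of test compound wells and 100% = reference inhibitor wells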
- Condition Set: TEAD-Gal4/YAP UAS-luciferase luminescence, at 9.12 µM, active compounds read high
The whole screen tested about 640,000 compounds, of which about 9,300 (1.5%) were called active. The full list was thinned out, with actives kept by preference.
Reported Endpoint: inhibition (%)

1. NC(=O)c1ccc(C(=O)N2CCC3(CC2)NC(=O)c2ccccc2O3)c(F)c1; 9.77
2. CCOC(=O)c1ccccc1NC(=O)/C=C/c1ccc(OC)cc1; 4.72
3. COc1cc(C(=O)Nc2ccc3nc(N4CCN(c5ncccn5)CC4)cc(C)c3c2)cc(OC)c1OC; 22.2
4. O=C(Nc1ccc(-c2nc3ccccc3o2)cc1)c1ccc(Oc2ccccc2)cc1; -4.71
5. Cn1cc(-c2ccc3cnc(Nc4ccc(-n5cnc(N6CCOCC6)n5)cc4)nc3c2-c2cnn(C)c2)cn1; 88.5
6. CCOC(=O)c1ccccc1NS(=O)(=O)c1ccc(OC)cc1; 46.5
7. CCC(=O)Nc1ccc(-c2nc3ccccc3o2)cc1; 3.84
8. c1coc(-c2ccc3cnc(Nc4ccc(-n5cnc(N6CCOCC6)n5)cc4)nc3c2)n1; -7.9
9. Cc1ccc(N2CCN(C(=O)c3c(F)cccc3Cl)CC2)nn1; -8.28
10. Cc1cc(NC(=O)c2c(F)cccc2Cl)ccc1N1CCCCC1=O; -2.91

* * *

Each item that follows carries a reported inhibition.
- Test Description: TEAD-YAP interaction inhibition, primary screen, TEAD-YAP interaction inhibitor project, luminescence, HEK-TIYL cells (AID 1259422);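 further: 0% = median of test compound wells and 100% = reference inhibitor wells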
- Condition Set: TEAD-Gal4/YAP UAS-luciferase luminescence, at 9.12 µM, active compounds read high
Out of some 640,000 compounds screened, about 9,300 (1.5%) were called active. This is one part of a sample in which actives are shown more often than they occur.
Reported Endpoint: inhibition (%)

1) Nc1nnc(SCC(=O)NC2CCCc3ccccc32)s1 (centres undefined); 0.12
2) Cc1[nH]c2ccccc2c1CCNC(=O)/C(=C/c1ccccc1)NC(=O)c1cccc(Br)c1; 2.37
3) CCc1ccccc1NC(=O)NCCNc1cc(-n2nc(C)cc2C)nc(C)n1; -1.06
4) O=C(CSc1nc2ccccc2c(=O)n1-c1ccc(C(=O)N2CCOCC2)cc1)NCc1ccccc1Cl; 5.25
5) Cc1nc2c3ccccc3n3c(CCCC(=O)NCc4cccnc4)nnc3n2n1; -0.28
6) COc1ccccc1-n1nnc(C(=O)NC2CCCc3ccccc32)c1N (centres undefined); 45.5
7) CC(C)N1CCC(N2CCN(Cc3nc(-c4ccccc4)cs3)CC2CCO)CC1 (centres undefined); -5.11
8) Cc1cc(C)cc(Cn2c(NCc3ccncc3)cc(=O)n(C)c2=O)c1; 33.7
9) CCOC(=O)c1ccc(NC(=O)CSc2nnnn2-c2ccc([N+](=O)[O-])cc2)cc1; -1.87
10) Oc1ccc(/C=N/Nc2ncc(F)c(N3CCOCC3)n2)c(O)c1; 58.7
11) O=c1cc(-c2ccccc2)[nH]c2nc(Cl)ccc12; 50.5
12) Cc1ccc2nc3nc4c(C)cccc4c(N)c3cc2c1; 43.1
13) CC(C(=O)O)c1ccc(NC(=O)OC(C)(C)C)cc1 (centres undefined); 32.1
14) COc1cccc(/C=N/NC(=O)/C(=C/c2ccccc2)NC(=O)c2ccccc2)c1O; 21.1
15) COCCNC(=O)c1oc2ccc3c(c2c1C)C(=O)CC1(CCCC1)O3; -23.1
16) CN1C(=O)C(O)=C(c2ccccc2)S1(=O)=O; 5.68
17) CCOC(=O)c1c(NC(=O)CSc2nnc(CNC(=O)c3ccc([N+](=O)[O-])cc3)n2CCc2ccccc2)sc2c1CCCCC2; -6.86
18) CC(=O)Nc1ccc(Nc2cc(C)nc(-n3nc(C)cc3C)n2)cc1; 36
19) CCN(CC)C(=O)c1sc(NC(=O)c2c(-c3ccccc3)noc2C)c(C(=O)OC(C)C)c1C; 2.03
20) Cc1cc(NCc2ccccc2)nc(-n2nc(C)cc2C)n1; 65.4
21) COc1ccc(Cn2nnc(C(=O)Nc3cccc(Cl)c3)c2N)cc1; -9.56
22) Cn1nccc1C(=O)N1CCC[C@@H]2CN(C(=O)Cc3ccc(F)cc3)CC[C@H]21; 6.31
23) C=CCn1c(NCCCN(C)C)cc(=O)n(C)c1=O; 1.12
24) Cc1[nH]c2ccccc2c1/C=N/NC(=O)/C(=C/c1ccccc1O)NC(=O)c1ccccc1; 83
25) O=C(COc1ccc([N+](=O)[O-])cc1)Nc1ccc2oc(-c3cccc(F)c3)nc2c1; -7.11
26) CC(C)CC(NC(=O)C(Cc1ccccc1)NC(=O)OC(C)(C)C)C(=O)O (centres undefined); 1.85
27) CC(C)c1ccc(OCC(O)CN2CCN(c3ccccn3)CC2)cc1 (centres undefined); -5.32
28) CC(C)(C)NCCOc1ccccc1F; 14.1
29) COC(=O)NCC(C)OC(=O)Nc1ccc(C)cc1 (centres undefined); -12.2
30) O=C(NC1CCCc2ccccc21)c1ccc2nccnc2c1 (centres undefined); -5.54
31) CCOC(=O)C1=C(c2ccccc2)N=c2s/c(=C\c3ccc4c(c3)OCO4)c(=O)n2C1c1ccc(OC)c(OC)c1 (centres undefined); 6.04
32) COc1ccccc1-n1nnc(C(=O)N2CCCCC2)c1N; -0.58
33) Cc1ccc(Nc2nc(N/N=C/c3ccccc3O)nc(N3CCOCC3)n2)cc1Cl; -11
34) Cn1c(SCC(=O)c2ccc3c(c2)OCO3)nnc1-c1cccs1; -1.64
35) Cn1nccc1C(=O)NC1CCCc2c1cnn2-c1ccc(F)cc1F (centres undefined); 55.8
36) Cc1cc(C)n(-c2nc(Nc3ccc(OC(F)(F)F)cc3)nc(-n3nc(C)cc3C)n2)n1; -10.5
37) CCc1cc(C)cc(OCC(O)Cn2c(C)nc3ccccc32)c1 (centres undefined); 26.7
38) O=[N+]([O-])/C=C\c1ccc(N2CCCCC2)cc1; 31.3
39) Nc1c(C(=O)NCc2ccccc2)nnn1Cc1cccc(Cl)c1; 37
40) Cc1cc(NCc2ccccc2)nc(N2CCN(Cc3ccc4c(c3)OCO4)CC2)n1; 3.95
41) Cc1ccc(C(c2cc(Cl)c3cccnc3c2O)N2CCN(c3ccccn3)CC2)cc1 (centres undefined); 38
42) O=C(O)CCNCCC(=O)c1ccccc1; -12.1
43) CCCC(=O)Nc1ccccc1NC(=O)Cc1ccccc1; -1.49
44) O=C1N[C@H](Cc2ccc(O)cc2)C(=O)N2CCN(C(=O)Oc3ccc(Cl)cc3)C[C@H]12; -0.03
